- Test system: Escherichia coli
- method.description: In vivo protective dose for mouse protection assay in Escherichia coli Vogel after peroral administration
- Assay type: functional
- test.conditions: po, read-out: PD50
Reported ED50 values for the following compounds.
Numbers only here, please. The scale is mg/kg.

Past entries and their recorded results:
CCN1CCC2(CCN(c3nc4c(cc3F)c(=O)c(C(=O)O)cn4CC)C2)C1 (stereo unspecified) | 10.3
CCN1CCC2(CCN(c3c(F)cc4c(=O)c(C(=O)O)cn(CC)c4c3F)C2)C1 (stereo unspecified) | 13
CN1CCC2(CCN(c3c(F)cc4c(=O)c(C(=O)O)cn(C5CC5)c4c3F)C2)C1 (stereo unspecified) | 5
CC1COc2c(N3CCC4(CCN(C)C4)C3)c(F)cc3c(=O)c(C(=O)O)cn1c23 (stereo unspecified) | 14
CCn1cc(C(=O)O)c(=O)c2cc(F)c(N3CCC4(CCN(C)C4)C3)nc21 (stereo unspecified) | 11.4
CCn1cc(C(=O)O)c(=O)c2cc(F)c(N3CCC4(CCN(C)C4)C3)c(F)c21 (stereo unspecified) | 8.4

# input If you can, please state the reported ED50 value of CCn1cc(C(=O)O)c(=O)c2c(F)c(F)c(N3CCC4(CCN(C)C4)C3)c(F)c21 (stereo unspecified) .
# output 22

# input Now the same for O=C(O)c1cn(C2CC2)c2c(F)c(N3CCC4(CCCN4)C3)c(F)cc2c1=O (stereo unspecified)
# output 4

----------
- method.description: Evaluated for minimum inhibitory concentration against […] bacteria […] SV-1
- Type: functional
assay.metric: MIC (mg/L)
Use mg/L as the unit, but write only the number.

CCN1CCC2(CCN(c3c(F)cc4c(=O)c(C(=O)O)cn(CC)c4c3F)C2)C1 (stereo not given) | 0.8
CCn1cc(C(=O)O)c(=O)c2cc(F)c(N3CCCC4(CCCNC4)C3)c(F)c21 (stereo not given) | 6.3
CCn1cc(C(=O)O)c(=O)c2cc(F)c(N3CCNCC3)cc21 | 3.1
O=C(O)c1cn(C2CC2)c2c(F)c(N3CCC4(CCCN4)C3)c(F)cc2c1=O (stereo not given) | 0.4
CCNCC1CCN(c2c(F)cc3c(=O)c(C(=O)O)cn(CC)c3c2F)C1 (stereo not given) | 0.1
CCN1CCC2(CCN(c3nc4c(cc3F)c(=O)c(C(=O)O)cn4CC)C2)C1 (stereo not given) | 1.6
CCn1cc(C(=O)O)c(=O)c2cc(F)c(N3CCC4(CCNC4)C3)c(F)c21 (stereo not given) | 0.2
CCn1cc(C(=O)O)c(=O)c2cc(F)c(N3CCCC4(CCCNC4)C3)nc21 (stereo not given) | 12.5

# input Which MIC value is on record for CCn1cc(C(=O)O)c(=O)c2cc(F)c(N3CCC4(CCCN4)C3)c(F)c21.Cl (stereo not given) ?
# output 1.6

# input What do you get for CC1COc2c(N3CCC4(CCN(C)C4)C3)c(F)cc3c(=O)c(C(=O)O)cn1c23 (stereo not given) ?
# output 0.2

# input Same question, CCn1cc(C(=O)O)c(=O)c2cc(F)c(N3CCC4(CCNC4)C3)nc21.Cl (stereo not given) this time
# output 0.8

# input One more compound: NC1CCN(c2c(F)cc3c(=O)c(C(=O)O)cn(C4CC4)c3c2F)C1 (stereo not given)
# output 0.05

# input Next: CCn1cc(C(=O)O)c(=O)c2cc(F)c(N3CCC(N)C3)c(F)c21 (stereo not given)
# output 0.4

# input Similarly, CCn1cc(C(=O)O)c(=O)c2cc(F)c(N3CCC4(CCN(C)C4)C3)nc21 (stereo not given) ?
# output 0.8

# input Next up: CCNCC1CCN(c2c(F)cc3c(=O)c(C(=O)O)cn(C4CC4)c3c2F)C1 (stereo not given)
# output 0.025

# input Would you kindly repeat that for CC1COc2c(N3CCC4(CCN(C)C4)C3)c(F)c(N)c3c(=O)c(C(=O)O)cn1c23 (stereo not given) ?
# output 0.4

# input Similarly, `O=C(O)c1cn(C2CC2)c2cc(N3CCNCC3)c(F)cc2c1=O` ?
# output 0.4

# input # repeat for CCN1CCC2(CCN(c3c(F)cc4c(=O)c(C(=O)O)cn(C5CC5)c4c3F)C2)C1 (stereo not given)
# output 0.2

# input Param item: CCn1cc(C(=O)O)c(=O)c2cc(F)c(N3CCC4(CCN(C)C4)C3)c(F)c21 (stereo not given)
# output 0.4

# input CN1CCC2(CCN(c3c(F)cc4c(=O)c(C(=O)O)cn(C5CC5)c4c3F)C2)C1 (stereo not given) , same question.
# output 0.05

Cited source: ChEMBL document CHEMBL1125136
